- EXPERIMENTAL_DETAILS: Saccharide concentration and osmotic pressure of hypertonic solutions (measured values)
- Format: physicochemical
- MEASUREMENT_PARAMETERS: saccharide concentration 0.6 M in culture medium
METRIC: Osmotic pressure (mOsm/kg)
Kindly answer with a numeric value in mOsm/kg, unit omitted.

Guide cases for Osmotic pressure, answers given:
SMILES_TEXT: OC[C@@H](O)[C@H](O)[C@@H](O)CO
QUANTITATIVE_RESULT: 940

SMILES_TEXT: C[N+](C)(C)CC(=O)[O-]
QUANTITATIVE_RESULT: 965

SMILES_TEXT: OC[C@@H](O)[C@@H](O)[C@H](O)[C@@H](O)CO
QUANTITATIVE_RESULT: 922

Q: Fill in the blank: the reported Osmotic pressure of OC[C@H]1O[C@@](CO)(O[C@H]2O[C@H](CO)[C@@H](O)[C@H](O)[C@H]2O)[C@@H](O)[C@@H]1O is ____.
A: 988

Q: Same question, OC[C@@H](O)[C@@H](O)[C@H](O)[C@H](O)CO this time
A: 875

Where these numbers come from: patent US8735152B2
